experiment: RP, Waters ACQUITY UPLC BEH C18, 38 °C, 0.24 mL/min; A: water + 0.1% formic acid, pH 3; B: acetonitrile + 0.1% formic acid, pH 3; gradient (min/%B) 0/0 0.25/0 0.4/9 0.8/17 1.9/100 2.1/100 2.11/0 3/0; settings: stereoisomer not certain
Recorded LC retention time, one value per entry.
property: LC retention time (min)

molecule | property | value.reported
Cn1c(=O)c2c(ncn2C)n(C)c1=O [Caffeine,Anhydrous] | LC retention time | 1.24
CCCCCCCCCCCC(=O)OCC(O)COP(=O)([O-])OCC[N+](C)(C)C (stereo not drawn) [Phosphocholine,1-Lauroyl-2-Hydroxy-sn-Glycero-3-] | LC retention time | 1.79
Nc1c(O)cccc1C(=O)O [3-Hydroxyanthranilic acid] | LC retention time | 1.13
NC(=O)CC[C@H](N)C(=O)O | LC retention time | 0.17
CCC=CCC1C(=O)CCC1CC(=O)O (racemic) [(+-)-Jasmonic acid] | LC retention time | 1.68
CC(=O)N[C@@H]1C(O)O[C@H](CO)[C@@H](O)[C@@H]1O (stereo partly drawn) | LC retention time | 0.18
COc1cc(-c2[o+]c3cc(O)cc(OC4OC(CO)C(O)C(O)C4O)c3cc2OC2OC(COC3OC(C)C(OC(=O)C=Cc4ccc(O)cc4)C(O)C3O)C(O)C(O)C2O)cc(O)c1O (stereo not drawn) | LC retention time | 1.36
COc1ccccc1C=CC(=O)O | LC retention time | 1.68
